Target: T1, cynomolgus PD-1 (#PD1-C52H5, AcroBiosystems) (cynomolgus monkey, UniProt B0LAJ3 25-170)
T1 construct: bought; also called cynomolgus monkey PD-1; not shown: the vendor's tag on the recombinant protein (AcroBiosystems #PD1-C52H5)
T1 sequence (B0LAJ3 entry or part of it limits assumed, form in doubt): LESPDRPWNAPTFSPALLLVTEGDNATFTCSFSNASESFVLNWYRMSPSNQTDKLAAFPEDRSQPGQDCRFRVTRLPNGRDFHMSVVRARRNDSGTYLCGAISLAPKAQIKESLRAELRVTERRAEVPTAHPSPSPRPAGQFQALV
Assay: SPR, PD-1 on captured IgG1
observation-type: koff (s⁻¹)

binder | obs-value
NRT742 (antibody, human IgG1, V domains shown, human IgG1) VH: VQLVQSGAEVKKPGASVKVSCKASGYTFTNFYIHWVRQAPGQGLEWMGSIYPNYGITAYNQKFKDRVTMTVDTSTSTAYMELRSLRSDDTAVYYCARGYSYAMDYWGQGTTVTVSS VL: DIQMTQSPSSVSASVGDRVTITCSASQGISGDLNWYQQKPGKAPKLLIYHASQLHSDVPSRFSGSGSGTDFTLTISSLQPEDFATYYCQGYSKDLLTFGGGTKLEIK | 0.000297
PEV057 (antibody, human IgG1, V domains shown, human IgG1) VH: VQLVQSGAEVKKPGASVKVSCKASGYTFTNFYIHWVRQAPGQGLEWMGSIYPNYGITAYNQKFKDRVTMTVDTSTSTAYMELRSLRSDDTATYYCARGYSYAMDYWGQGTTVTVSS VL: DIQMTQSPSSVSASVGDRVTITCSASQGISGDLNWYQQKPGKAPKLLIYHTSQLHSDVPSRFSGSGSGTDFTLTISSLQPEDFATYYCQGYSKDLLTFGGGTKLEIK | 0.00016
XVT458-z2-m6 (antibody, human IgG1, V domains shown, human IgG1; also called anti-PD-1 antibody clone XVT458-z2-m6) VH: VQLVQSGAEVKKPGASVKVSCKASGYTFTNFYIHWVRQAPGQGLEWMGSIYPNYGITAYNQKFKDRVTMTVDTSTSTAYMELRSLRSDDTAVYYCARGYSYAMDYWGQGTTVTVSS VL: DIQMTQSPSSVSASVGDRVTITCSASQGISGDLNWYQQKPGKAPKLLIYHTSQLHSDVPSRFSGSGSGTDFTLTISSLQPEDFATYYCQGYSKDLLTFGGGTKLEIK | 0.000153
WAZ460 (antibody, human IgG1, V domains shown, human IgG1) VH: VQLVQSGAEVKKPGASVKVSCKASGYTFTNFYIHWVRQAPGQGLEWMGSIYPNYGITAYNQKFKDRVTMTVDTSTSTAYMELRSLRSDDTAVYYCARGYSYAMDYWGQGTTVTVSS VL: DIQMTQSPSSVSASVGDRVTITCRASQGISGDLNWYQQKPGKAPKLLIYHTSQLHSDVPSRFSGSGSGTDFTLTISSLQPEDFATYYCQGYSKDLLTFGGGTKLEIK | 0.00016
BBJ602 (antibody, human IgG1, V domains shown, human IgG1) VH: VQLVQSGAEVKKPGASVKVSCKASGYTFTNFYIHWVRQAPGQGLEWMGSIYPNYGITAYNQKFKDRVTMTVDTSTSTAYMELRSLRSDDTAVYYCARGYSYGMDYWGQGTTVTVSS VL: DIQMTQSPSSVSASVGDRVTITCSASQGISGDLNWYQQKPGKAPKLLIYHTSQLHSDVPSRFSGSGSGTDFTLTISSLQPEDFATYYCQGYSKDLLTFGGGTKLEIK | 3.15
